Test system: HCV 1a genotype replicon
Assay: HCV replicon assay (qRT-PCR or luciferase), genotype 1a
Format: cell-based
Details: Hepatitis C virus, Table 12, range class, read-out: 1a EC50 Range
pEC50: −log10 of the molar value.
pEC50 values for the compounds below.

Observe how each entry below is paired with its result.
- COMPOUND: "COC(=O)N[C@H](C(=O)N1C[C@@H](O)C[C@H]1c1nc(-c2ccc(C#Cc3ccc4[nH]c([C@@H]5C[C@@]6(CCCO6)CN5C(=O)[C@@H](NC(=O)OC)C(C)C)nc4c3)cc2)c[nH]1)C(C)C [Example 561]"
  REPORTED_METRIC: "pEC50"
  RESULT: "> 9.00"
- COMPOUND: "COC(=O)N[C@H](C(=O)N1CC2(CC2)C[C@H]1c1ncc(-c2ccc(C#Cc3ccc4nc([C@@H]5CC6(CC6)CN5C(=O)[C@@H](NC(=O)OC)C5CCOCC5)[nH]c4c3)cc2)[nH]1)C1CCOCC1 [Example 583]"
  REPORTED_METRIC: "pEC50"
  RESULT: "> 9.00"
- COMPOUND: "COC(=O)N[C@H](C(=O)N1CC2(CC2)C[C@H]1c1nc2ccc(C#Cc3ccc(-c4cnc([C@@H]5CCCN5C(=O)[C@H](NC(=O)OC)c5cccc(Cl)c5)[nH]4)cc3)cc2[nH]1)C(C)C [Example 665]"
  REPORTED_METRIC: "pEC50"
  RESULT: "> 9.00"
- COMPOUND: "COC(=O)N[C@H](C(=O)N1CCC[C@H]1c1nc(-c2ccc(C#Cc3ccc4[nH]c([C@@H]5CC6(CCOCC6)CN5C(=O)[C@@H](NC(=O)OC)C(C)C)nc4c3)cc2)c[nH]1)C(C)C [Example 568]"
  REPORTED_METRIC: "pEC50"
  RESULT: "> 9.00"

Please look at the following compound next.
So what's the measured pEC50 for this one? COC(=O)N[C@H](C(=O)N1CC2(CC2)C[C@H]1c1nc2cc(C#Cc3ccc(-c4c[nH]c([C@@H]5CCCN5C(=O)[C@H](NC(=O)OC)c5ccccc5)n4)cc3)ccc2[nH]1)C(C)C [Example 579] > 9.00

* * *

Tested on: HCV 1a genotype replicon
Experiment: HCV replicon assay (qRT-PCR or luciferase), genotype 1a
Type: cell-based
Conditions: Hepatitis C virus, Table 12, numeric values, read-out: 1a EC50
REPORTED_METRIC: EC50 (nM)
The response must be a number in nM with no trailing unit.

- MOLECULE: "COC(=O)N[C@H](C(=O)N1CC2(CC2)C[C@H]1c1ncc(-c2ccc(C#Cc3ccc4nc([C@@H]5CC6(CC6)CN5C(=O)[C@H](NC(=O)OC)c5ccc(Cl)cc5)[nH]c4c3)cc2)[nH]1)C(C)C [Example 650]"
  TESTED_ON: "HCV 1a genotype replicon"
  REPORTED_METRIC: "EC50"
  RECORDED_NUMBER: 0.079

# context switch: different molecule, same EC50
Query for HCV 1a genotype replicon: what EC50 does the record show for COC(=O)N[C@H](C(=O)N1CC2(CC2)C[C@H]1c1ncc(-c2ccc(C#Cc3ccc4nc([C@@H]5CC6(CC6)CN5C(=O)[C@H](NC(=O)OC)c5cccc(OC)c5)[nH]c4c3)cc2)[nH]1)C(C)C [Example 654] ? 0.185

* * *

System: HCV 1a genotype replicon
Test: HCV replicon assay (qRT-PCR or luciferase), genotype 1a
Assay type: cell-based
Settings: Hepatitis C virus, Table 12, numeric values, read-out: 1a EC50
Description: HCV replicon cell lines (kindly provided by R. Bartenschlager) isolated from colonies as described by Lohman et. al. (Lohman et al. (1999) Science 285: 110-113, expressly incorporated by reference in its entirety) and used for all experiments. The HCV replicon has the nucleic acid sequence set forth in EMBL Accession No.: AJ242651, the coding sequence of which is from nucleotides 1801 to 8406. […]
REPORTED_METRIC: EC50 (nM)
Reply with just the number (in nM).

- MOLECULE: "COC(=O)N[C@@H](CC#N)C(=O)N1CCC[C@H]1c1nc(-c2ccc(C#Cc3ccc4[nH]c([C@@H]5CC6(CC6)CN5C(=O)[C@@H](NC(=O)OC)C(C)C)nc4c3)cc2)c[nH]1 [Example 621]"
  TESTED_ON: "HCV 1a genotype replicon"
  EC50 / nM: 0.207

Request: EC50, test system HCV 1a genotype replicon, entry COC(=O)N[C@H](C(=O)N1CCC[C@H]1c1nc(-c2ccc3nc(-c4ccc5[nH]c([C@@H]6CC7(CC7)CN6C(=O)[C@@H](NC(=O)OC)C(C)C)nc5c4)ccc3c2)c[nH]1)C(C)C [Example 574] 0.127

Lab note: need EC50 for CC[C@H](NC(=O)OC)C(=O)N1CC2(CC2)C[C@H]1c1ncc(-c2ccc(C#Cc3ccc4nc([C@@H]5CC6(CC6)CN5C(=O)[C@H](CC)NC(=O)OC)[nH]c4c3)cc2)[nH]1 [Example 655] on HCV 1a genotype replicon, anyone have it? 0.034

* * *

Tested on: HCV 1a genotype replicon
Assay: HCV replicon assay (qRT-PCR or luciferase), genotype 1a
Assay type: cell-based
Conditions: Hepatitis C virus, Table 12, range class, read-out: 1a EC50 Range
// EC50 lookup, one value per entry

- MOLECULE: "COC(=O)N[C@H](C(=O)N1CC2(CC2)C[C@H]1c1nc2ccc(C#Cc3ccc(-c4cnc([C@@H]5CCCN5C(=O)[C@@H](NC(=O)OC)C5CCCCC5)[nH]4)cc3)cc2[nH]1)C(C)C"
  TESTED_ON: "HCV 1a genotype replicon"
  REPORTED_METRIC: "EC50"
  RESULT: "< 1 nM"
- MOLECULE: "COC(=O)N[C@H](C(=O)N1CC2(CC2)C[C@H]1c1ncc(-c2ccc(C#Cc3ccc4nc([C@@H]5CC6(CC6)CN5C(=O)[C@@H](NC(=O)OC)[C@@H](C)OC)[nH]c4c3)cc2)[nH]1)C(C)C"
  TESTED_ON: "HCV 1a genotype replicon"
  REPORTED_METRIC: "EC50"
  RESULT: "< 1 nM"
- MOLECULE: "COC(=O)N[C@H](C(=O)N1CC2(CC2)C[C@H]1c1ncc(-c2ccc(C#Cc3ccc4nc([C@@H]5C[C@H]6C[C@H]6N5C(=O)[C@H](NC(=O)OC)c5ccccc5)[nH]c4c3)cc2)[nH]1)C(C)C"
  TESTED_ON: "HCV 1a genotype replicon"
  REPORTED_METRIC: "EC50"
  RESULT: "< 1 nM"
- MOLECULE: "COC(=O)N[C@H](C(=O)N1CC2(CC2)C[C@H]1c1nc2ccc(C#Cc3ccc(-c4cnc([C@@H]5CCCN5C(=O)[C@H](NC(=O)OC)c5cccc(F)c5)[nH]4)cc3)cc2[nH]1)C(C)C"
  TESTED_ON: "HCV 1a genotype replicon"
  REPORTED_METRIC: "EC50"
  RESULT: "< 1 nM"
- MOLECULE: "COC(=O)N[C@@H](CCNC(N)=O)C(=O)N1CCC[C@H]1c1nc(-c2ccc(C#Cc3ccc4[nH]c([C@@H]5CC6(CC6)CN5C(=O)[C@@H](NC(=O)OC)C(C)C)nc4c3)cc2)c[nH]1"
  TESTED_ON: "HCV 1a genotype replicon"
  REPORTED_METRIC: "EC50"
  RESULT: "1 to 10 nM"

Reported EC50, molecule COC(=O)N[C@H](C(=O)N1CC2(CC2)C[C@H]1c1ncc(-c2ccc(C#Cc3ccc4nc([C@@H]5CC6(CC6)CN5C(=O)[C@H](NC(=O)OC)c5cccs5)[nH]c4c3)cc2)[nH]1)C(C)C : ____ < 1 nM

Which EC50 is listed for CC[C@H](C)[C@H](NC(=O)OC)C(=O)N1CCC[C@H]1c1ncc(-c2ccc(C#Cc3ccc4nc([C@@H]5CC6(CC6)CN5C(=O)[C@@H](NC(=O)OC)C(C)C)[nH]c4c3)cc2)[nH]1 ? < 1 nM

// query EC50 value for entry COC(=O)N[C@H](C(=O)N1C[C@@H](OC)C[C@H]1c1nc(-c2ccc(C#Cc3ccc4[nH]c([C@@H]5C[C@@]6(CCCO6)CN5C(=O)[C@@H](NC(=O)OC)C(C)C)nc4c3)cc2)c[nH]1)C(C)C < 1 nM

Would you kindly share the measured EC50 for COC(=O)N[C@H](C(=O)N1CC2(CC2)C[C@H]1c1nc2ccc(C#Cc3ccc(-c4cnc([C@@H]5CCCN5C(=O)[C@H](NC(=O)OC)c5cc(F)cc(F)c5)[nH]4)cc3)cc2[nH]1)C(C)C (stereo in doubt) ? < 1 nM

Quick one: EC50 of COC(=O)N[C@H](C(=O)N1CC2(CC2)C[C@H]1c1nc(-c2ccc(C#Cc3ccc4[nH]c([C@@H]5C[C@@]6(CCCO6)CN5C(=O)[C@@H](NC(=O)OC)C(C)C)nc4c3)cc2)c[nH]1)C(C)C ? < 1 nM

Sample COC(=O)N[C@H](C(=O)N1CC2(CC2)C[C@H]1c1nc2ccc(C#Cc3ccc(-c4cnc([C@@H]5C[C@H]6C[C@H]6N5C(=O)[C@H](NC(=O)OC)c5cccc(F)c5)[nH]4)cc3)cc2[nH]1)C(C)C — what was its EC50? < 1 nM

Given the entry COC(=O)N[C@@H](CNC(N)=O)C(=O)N1CCC[C@H]1c1ncc(-c2ccc(C#Cc3ccc4nc([C@@H]5CC6(CC6)CN5C(=O)[C@@H](NC(=O)OC)C(C)C)[nH]c4c3)cc2)[nH]1 , report its measured EC50. 1 to 10 nM

Bench note: what EC50 did COC(=O)N[C@H](C(=O)N1CC2(CC2)C[C@H]1c1nc2ccc(C#Cc3ccc(-c4cnc([C@@H]5C[C@H]6C[C@H]6N5C(=O)[C@@H](NC(=O)OC)C(C)C)[nH]4)cc3)cc2[nH]1)C(C)C show? < 1 nM

Quick one: EC50 for CC[C@H](C)[C@H](NC(=O)OC)C(=O)N1CC2(CC2)C[C@H]1c1nc2ccc(C#Cc3ccc(-c4cnc([C@@H]5CC6(CC6)CN5C(=O)[C@@H](NC(=O)OC)C(C)C)[nH]4)cc3)cc2[nH]1 ? < 1 nM

Dear colleague, I am looking for the recorded EC50 of the following molecule: COC(=O)N[C@H](C(=O)N1C[C@H](CF)C[C@H]1c1ncc(-c2ccc(C#Cc3ccc4nc([C@@H]5C[C@@]6(CCCO6)CN5C(=O)[C@@H](NC(=O)OC)C(C)C)[nH]c4c3)cc2)[nH]1)C(C)C < 1 nM

Which EC50 is listed for COC(=O)N[C@H](C(=O)N1CC2(CC2)C[C@H]1c1nc2ccc(C#Cc3ccc(-c4cnc([C@@H]5CCCN5C(=O)[C@H](NC(=O)OC)[C@H](C)c5ccccc5)[nH]4)cc3)cc2[nH]1)C(C)C ? > 10 nM

Data request, read-out EC50, for COC(=O)N[C@H](C(=O)N1CC2(CC2)C[C@H]1c1ncc(-c2ccc(C#Cc3ccc4nc([C@@H]5CC6(CC6)CN5C(=O)[C@@H](NC(=O)OC)C5CC5)[nH]c4c3)cc2)[nH]1)C(C)C < 1 nM

Given the molecule CC[C@@H](C)[C@H](NC(=O)OC)C(=O)N1CC2(CC2)C[C@H]1c1ncc(-c2ccc(C#Cc3ccc4nc([C@@H]5CC6(CC6)CN5C(=O)[C@@H](NC(=O)OC)C(C)C)[nH]c4c3)cc2)[nH]1 , what is its reported EC50? < 1 nM

The reported numbers originate from patent US9765087B2.
